Target: Luciferin 4-monooxygenase (Photinus pyralis) (UniProt P08659)
Sequence (P08659 whole entry, looked up): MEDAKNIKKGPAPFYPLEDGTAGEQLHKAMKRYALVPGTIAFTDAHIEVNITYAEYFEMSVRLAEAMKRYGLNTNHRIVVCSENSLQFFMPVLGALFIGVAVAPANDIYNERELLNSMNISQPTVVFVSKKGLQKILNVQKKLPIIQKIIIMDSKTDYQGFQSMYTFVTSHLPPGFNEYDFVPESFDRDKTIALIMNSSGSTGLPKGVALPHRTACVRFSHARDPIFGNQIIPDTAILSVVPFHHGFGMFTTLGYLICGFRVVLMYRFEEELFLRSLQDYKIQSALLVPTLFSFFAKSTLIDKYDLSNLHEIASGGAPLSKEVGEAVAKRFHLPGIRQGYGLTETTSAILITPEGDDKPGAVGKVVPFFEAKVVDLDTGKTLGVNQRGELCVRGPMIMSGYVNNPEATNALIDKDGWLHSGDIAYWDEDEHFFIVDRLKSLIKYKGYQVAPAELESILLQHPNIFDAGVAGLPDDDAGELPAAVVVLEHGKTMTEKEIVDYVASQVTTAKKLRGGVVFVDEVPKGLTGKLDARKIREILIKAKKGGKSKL
Assay: qHTS profiling assay for firefly luciferase inhibitor/activator using purifed enzyme and Km concentrations of substrates (counterscreen for miR-21 project); note: nearly all actives have a fitted effect of over 55% in size; note: potency is the fitted concentration of half-maximal effect
Conditions: purified FLuc, luminescence inhibition; series mostly up to 57.5 µM
The campaign covered roughly 360,000 compounds. About 25,000 (6.9%) were called active. Inconclusive results (about 9%) are left out. The full list was thinned out, with actives kept by preference.
Endpoint: Potency

>  <Molecule>
CCCn1c2ccccc2c2cnn(CC(=O)N3CCCC(C(=O)OCC)C3)c(=O)c21 (stereo not given)

>  <Result>
inactive

$$$$
>  <Molecule>
CC(Sc1nc(-c2ccccc2)cc(C(F)(F)F)n1)C(=O)Nc1ccc2c(c1)OCO2 (stereo not given)

>  <Result>
inactive

$$$$
>  <Molecule>
O=C(c1ccc2c(c1)N(Cc1ccccc1)C(=O)c1ccccc1S2(=O)=O)N1CCCC1

>  <Result>
inactive

$$$$
>  <Molecule>
Cc1nn(CC(=O)Nc2ccc3c(c2)OCO3)c(C)c1[N+](=O)[O-]

>  <Result>
inactive

$$$$
>  <Molecule>
O=C(Nc1ccc(N2CCOCC2)cc1)c1ccc2c(c1)OCO2

>  <Result>
10.7 µM (active)

$$$$
>  <Molecule>
CC(C)C(=O)Nc1cccc(C(=O)Nc2ccc3c(c2)OCO3)c1

>  <Result>
8.49 µM (active)

$$$$

Value of Potency reported for the molecule O=C(NCCS(=O)(=O)N1CCN(c2ccc(F)cc2)CC1)c1ccc2c(c1)OCO2 is inactive

Record COc1cccc(NC(=O)c2nn(C34CC5CC(CC(C5)C3)C4)cc2[N+](=O)[O-])c1 . Reported Potency: inactive

The molecule listed as CCC(C(=O)Nc1ccc2c(c1)OCCO2)c1ccccc1 (stereo not given) has a reported Potency of inactive

Kindly note the recorded Potency for O=C(Nc1ccc2c(c1)CCC2)c1cccc(S(=O)(=O)Nc2ccccc2Cl)c1 , which is 21.3 µM (active)
